Target: Histone deacetylase 3 (Homo sapiens) (UniProt O15379)
Sequence (O15379 whole entry): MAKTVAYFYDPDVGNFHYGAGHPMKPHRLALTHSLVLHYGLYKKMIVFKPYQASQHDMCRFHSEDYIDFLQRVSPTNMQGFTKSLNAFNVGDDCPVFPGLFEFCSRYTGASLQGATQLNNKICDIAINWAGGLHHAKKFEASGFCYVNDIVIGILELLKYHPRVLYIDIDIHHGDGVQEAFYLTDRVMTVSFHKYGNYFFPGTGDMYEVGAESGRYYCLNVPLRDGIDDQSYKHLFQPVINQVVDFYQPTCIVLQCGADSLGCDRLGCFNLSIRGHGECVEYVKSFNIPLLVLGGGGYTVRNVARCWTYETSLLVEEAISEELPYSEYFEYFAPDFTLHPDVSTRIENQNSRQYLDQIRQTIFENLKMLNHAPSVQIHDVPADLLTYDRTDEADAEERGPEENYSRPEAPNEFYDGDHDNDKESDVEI
Experiment: Inhibition of HDAC3 in human HL60 cells assessed as increase in histone H4 acetylation at 1 ug/ml after 24 hrs by Western blot analysis
Type: cell-based
Conditions: HL-60
Activity calls are given as the source filed them. The rule behind the calls is not given here.
Parameter call: string, one of YES = active, NO = inactive

CCOc1ccc2nc(NC(=O)CCCCCCC(=O)NO)sc2c1 ... NO
CCOc1ccc2nc(NC(=O)CCCCC(=O)NO)sc2c1 ... NO
O=C(CCCCCCC(=O)Nc1nc2ccc([N+](=O)[O-])cc2s1)NO ... YES
O=C(CCCCC(=O)Nc1nc2ccccc2s1)NO ... NO

## Input Assay outcome for O=C(CCCCC(=O)Nc1nc2ccc([N+](=O)[O-])cc2s1)NO : what was it?
## Output NO

## Input Assay outcome for COc1ccc2nc(NC(=O)CCCCC(=O)NO)sc2c1 : what was it?
## Output NO

## Input Assay outcome for COc1ccc2nc(NC(=O)CCCCCCC(=O)NO)sc2c1 : what was it?
## Output YES

## Input Assay outcome for CS(=O)(=O)c1ccc2nc(NC(=O)CCCCCCC(=O)NO)sc2c1 : what was it?
## Output NO

## Input Assay outcome for O=C(CCCCCCC(=O)Nc1nc2ccccc2s1)NO : what was it?
## Output YES

* * *

Target: Histone deacetylase 4 (Homo sapiens)
Assay: Inhibition of HDAC4 in human HL60 cells assessed as increase in histone H4 acetylation at 1 ug/ml after 24 hrs by Western blot analysis
Type: cell-based
Details: HL-60
The source made the active and inactive calls. The rule behind the calls is not given here.
assay-metric: inhibition

Reference set (4 entries):
CCOc1ccc2nc(NC(=O)CCCCC(=O)NO)sc2c1 ... inactive
CCOc1ccc2nc(NC(=O)CCCCCCC(=O)NO)sc2c1 ... inactive
O=C(CCCCC(=O)Nc1nc2ccc([N+](=O)[O-])cc2s1)NO ... inactive
O=C(CCCCCCC(=O)Nc1nc2ccccc2s1)NO ... Active

Consider the following items and state reported inhibition for each.
1. Cc1ccc2nc(NC(=O)CCCCC(=O)NO)sc2c1
2. O=C(CCCCCCC(=O)Nc1nc2ccc([N+](=O)[O-])cc2s1)NO
3. COc1ccc2nc(NC(=O)CCCCCCC(=O)NO)sc2c1
4. CS(=O)(=O)c1ccc2nc(NC(=O)CCCCCCC(=O)NO)sc2c1
5. COc1ccc2nc(NC(=O)CCCCC(=O)NO)sc2c1

## Output
1: inactive; 2: Active; 3: Active; 4: inactive; 5: inactive

Consider the following items and state reported inhibition for each.
1. CS(=O)(=O)c1ccc2nc(NC(=O)CCCCC(=O)NO)sc2c1
2. O=C(CCCCC(=O)Nc1nc2ccccc2s1)NO

## Output
1. inactive
2. inactive

Short answer for Cc1ccc2nc(NC(=O)CCCCCCC(=O)NO)sc2c1 : inhibition was Active

* * *

Target: UniProt:O15379
Experiment: Inhibition of HDAC3 in human SW620 cells assessed as increase in histone H3 acetylation at 1 ug/ml after 24 hrs by Western blot analysis
Assay type: cell-based
Details: SW-620
Activity calls are given as the source filed them. The rule behind the calls is not given here.
Parameter call: string, one of active, inactive

The examples below pair each entry with its known result.
O=C(CCCCCCC(=O)Nc1nc2ccc([N+](=O)[O-])cc2s1)NO ... active
Cc1ccc2nc(NC(=O)CCCCCCC(=O)NO)sc2c1 ... active
Cc1ccc2nc(NC(=O)CCCCC(=O)NO)sc2c1 ... inactive

## Input Assay outcome for CCOc1ccc2nc(NC(=O)CCCCC(=O)NO)sc2c1 : what was it?
## Output inactive

## Input Assay outcome for O=C(CCCCC(=O)Nc1nc2ccccc2s1)NO : what was it?
## Output inactive

## Input Assay outcome for CS(=O)(=O)c1ccc2nc(NC(=O)CCCCCCC(=O)NO)sc2c1 : what was it?
## Output inactive

* * *

Biological target: UniProtKB O15379
Experiment: Inhibition of HDAC3 in human SW620 cells assessed as increase in histone H3 acetylation at 1 ug/ml after 24 hrs by Western blot analysis
Type: cell-based
Details: SW-620
Calls of active or inactive are those of the source. The rule behind the calls is not given here.
assay-metric: inhibition

COc1ccc2nc(NC(=O)CCCCCCC(=O)NO)sc2c1 ... Active
O=C(CCCCCCC(=O)Nc1nc2ccccc2s1)NO ... Active
COc1ccc2nc(NC(=O)CCCCC(=O)NO)sc2c1 ... inactive
O=C(CCCCC(=O)Nc1nc2ccc([N+](=O)[O-])cc2s1)NO ... inactive

Consider the following items and state reported inhibition for each.
1. CS(=O)(=O)c1ccc2nc(NC(=O)CCCCC(=O)NO)sc2c1
2. CCOc1ccc2nc(NC(=O)CCCCCCC(=O)NO)sc2c1

## Output
["inactive", "inactive"]

* * *

Molecular target: Histone deacetylase 4 (Homo sapiens) (UniProt P56524)
Sequence (P56524 whole entry): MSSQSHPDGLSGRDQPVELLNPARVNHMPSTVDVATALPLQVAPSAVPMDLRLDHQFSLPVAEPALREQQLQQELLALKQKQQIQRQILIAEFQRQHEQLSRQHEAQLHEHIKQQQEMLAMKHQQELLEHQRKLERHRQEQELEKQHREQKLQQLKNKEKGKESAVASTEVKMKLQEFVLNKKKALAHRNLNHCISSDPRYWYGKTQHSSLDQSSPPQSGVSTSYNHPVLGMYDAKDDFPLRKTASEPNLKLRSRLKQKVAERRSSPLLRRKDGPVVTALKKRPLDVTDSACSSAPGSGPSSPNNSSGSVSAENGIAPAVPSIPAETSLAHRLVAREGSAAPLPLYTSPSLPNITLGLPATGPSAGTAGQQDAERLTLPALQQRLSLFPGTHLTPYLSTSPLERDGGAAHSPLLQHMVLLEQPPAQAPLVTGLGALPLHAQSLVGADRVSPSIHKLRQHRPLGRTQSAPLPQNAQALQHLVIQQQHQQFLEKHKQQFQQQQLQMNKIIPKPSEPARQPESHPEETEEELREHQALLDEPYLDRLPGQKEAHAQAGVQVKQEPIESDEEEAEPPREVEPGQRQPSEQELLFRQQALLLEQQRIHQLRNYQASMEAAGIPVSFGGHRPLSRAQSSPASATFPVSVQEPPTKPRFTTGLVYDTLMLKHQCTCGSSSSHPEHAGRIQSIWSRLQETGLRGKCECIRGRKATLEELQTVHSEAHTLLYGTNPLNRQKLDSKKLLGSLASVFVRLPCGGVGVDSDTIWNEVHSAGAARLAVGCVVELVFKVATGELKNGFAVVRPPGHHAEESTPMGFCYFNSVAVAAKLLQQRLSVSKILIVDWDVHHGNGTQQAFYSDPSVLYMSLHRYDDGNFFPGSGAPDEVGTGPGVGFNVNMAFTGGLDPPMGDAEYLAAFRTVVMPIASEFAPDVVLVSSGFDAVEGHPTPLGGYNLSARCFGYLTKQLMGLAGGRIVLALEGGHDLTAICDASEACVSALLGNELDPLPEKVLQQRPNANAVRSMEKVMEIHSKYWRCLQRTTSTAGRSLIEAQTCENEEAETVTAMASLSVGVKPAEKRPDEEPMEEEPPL
Assay: Inhibition of HDAC4 in human SW620 cells assessed as increase in histone H3 acetylation at 1 ug/ml after 24 hrs by Western blot analysis
Type: cell-based
Settings: SW-620
Calls of active or inactive are those of the source. The rule behind the calls is not given here.
Parameter call: string, one of active, inactive

Cc1ccc2nc(NC(=O)CCCCCCC(=O)NO)sc2c1 ... active
COc1ccc2nc(NC(=O)CCCCCCC(=O)NO)sc2c1 ... active

## Input Assay outcome for CCOc1ccc2nc(NC(=O)CCCCCCC(=O)NO)sc2c1 : what was it?
## Output inactive

## Input Assay outcome for O=C(CCCCC(=O)Nc1nc2ccccc2s1)NO : what was it?
## Output inactive

* * *

Target: Histone deacetylase 3 (Homo sapiens) (UniProt O15379)
Experiment: Inhibition of HDAC3 in human HL60 cells assessed as increase in histone H4 acetylation at 1 ug/ml after 24 hrs by Western blot analysis
Assay type: cell-based
Settings: HL-60
Calls of active or inactive are those of the source. No cut-off for these calls is given here.
Parameter call: string, one of 1 = active, 0 = inactive

The examples below pair each entry with its known result.
CS(=O)(=O)c1ccc2nc(NC(=O)CCCCC(=O)NO)sc2c1 ... 0
Cc1ccc2nc(NC(=O)CCCCCCC(=O)NO)sc2c1 ... 1

We now examine a further compound.
## Input Assay outcome for Cc1ccc2nc(NC(=O)CCCCC(=O)NO)sc2c1 : what was it?
## Output 0

* * *

Target: Histone deacetylase 4 (Homo sapiens)
Assay: Inhibition of HDAC4 in human SW620 cells assessed as increase in histone H3 acetylation at 1 ug/ml after 24 hrs by Western blot analysis
Format: cell-based
Settings: SW-620
The source made the active and inactive calls. No cut-off for these calls is given here.
Parameter call: string, one of true (active), false (inactive)

CCOc1ccc2nc(NC(=O)CCCCC(=O)NO)sc2c1 ... false
Cc1ccc2nc(NC(=O)CCCCC(=O)NO)sc2c1 ... false
CS(=O)(=O)c1ccc2nc(NC(=O)CCCCC(=O)NO)sc2c1 ... false
CS(=O)(=O)c1ccc2nc(NC(=O)CCCCCCC(=O)NO)sc2c1 ... false
O=C(CCCCCCC(=O)Nc1nc2ccccc2s1)NO ... true

## Input Assay outcome for O=C(CCCCCCC(=O)Nc1nc2ccc([N+](=O)[O-])cc2s1)NO : what was it?
## Output true

## Input Assay outcome for COc1ccc2nc(NC(=O)CCCCC(=O)NO)sc2c1 : what was it?
## Output false

## Input Assay outcome for O=C(CCCCC(=O)Nc1nc2ccc([N+](=O)[O-])cc2s1)NO : what was it?
## Output false
